Below: a set of entries, each annotated with reported inhibition at 0.1 µM.
Test system: FGFR1 (Homo sapiens, UniProt P11362)
Construct: purchased Millipore
Sequence (P11362 22-822): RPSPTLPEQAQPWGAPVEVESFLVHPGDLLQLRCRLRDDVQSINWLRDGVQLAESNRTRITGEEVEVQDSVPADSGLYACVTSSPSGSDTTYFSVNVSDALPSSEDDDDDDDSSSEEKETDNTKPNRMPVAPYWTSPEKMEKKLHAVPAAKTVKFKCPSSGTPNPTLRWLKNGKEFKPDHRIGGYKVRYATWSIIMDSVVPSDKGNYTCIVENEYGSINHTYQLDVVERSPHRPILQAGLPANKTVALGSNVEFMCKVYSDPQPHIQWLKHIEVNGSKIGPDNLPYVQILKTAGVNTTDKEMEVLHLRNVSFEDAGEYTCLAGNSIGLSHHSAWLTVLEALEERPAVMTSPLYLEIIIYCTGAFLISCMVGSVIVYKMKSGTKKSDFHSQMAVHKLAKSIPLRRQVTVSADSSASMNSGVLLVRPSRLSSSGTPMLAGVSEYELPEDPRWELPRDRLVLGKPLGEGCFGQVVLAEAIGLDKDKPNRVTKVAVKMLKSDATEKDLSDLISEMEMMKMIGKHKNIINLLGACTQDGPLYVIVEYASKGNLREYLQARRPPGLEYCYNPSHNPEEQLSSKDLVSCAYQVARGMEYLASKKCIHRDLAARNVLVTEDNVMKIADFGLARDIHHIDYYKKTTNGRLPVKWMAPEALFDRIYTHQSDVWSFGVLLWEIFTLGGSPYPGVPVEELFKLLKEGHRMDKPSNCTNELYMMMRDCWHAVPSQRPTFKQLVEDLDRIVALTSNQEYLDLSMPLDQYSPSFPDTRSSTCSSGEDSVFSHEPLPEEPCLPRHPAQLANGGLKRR
Test summary: ELISA kinase assay, FGFR1
Format: biochemical
Conditions used: 0.1 μM compound
Description: The effects of compounds on the activities of indicated (FGFR1 and c-Met) kinases were determined using enzyme-linked immunosorbent assays (ELISAs) with purified recombinant proteins. […] The reaction was terminated by the addition of 50 μL of 2 mol/L H2SO4 as the color changed, and the plate was analyzed using a multi-well spectrophotometer (SpectraMAX 190, Molecular Devices, Palo Alto, CA, USA) at 490 nm. […] The IC50 values were calculated from the inhibition curves in two separate experiments.

[
  {
    "Compound": "Cn1cc(-c2cnc3ccn(S(=O)(=O)c4ccccc4)c3n2)cn1 [Compound 9]",
    "Test system": "FGFR1 (Homo sapiens, UniProt P11362)",
    "inhibition at 0.1 µM [%]": 46
  },
  {
    "Compound": "Cn1cc(-c2cnc3ccn(S(=O)(=O)c4ccc([N+](=O)[O-])cc4)c3n2)cn1 [Compound 18]",
    "Test system": "FGFR1 (Homo sapiens, UniProt P11362)",
    "inhibition at 0.1 µM [%]": 17.4
  },
  {
    "Compound": "CC(=O)Cn1cc(-c2cnc3ccn(S(=O)(=O)c4cccc([N+](=O)[O-])c4)c3n2)cn1 [Compound 25]",
    "Test system": "FGFR1 (Homo sapiens, UniProt P11362)",
    "inhibition at 0.1 µM [%]": 55.7
  },
  {
    "Compound": "CCC(=O)Nc1cccc(S(=O)(=O)n2ccc3ncc(-c4cnn(C)c4)nc32)c1 [Compound 22]",
    "Test system": "FGFR1 (Homo sapiens, UniProt P11362)",
    "inhibition at 0.1 µM [%]": 27.7
  }
]

----------
Test system: FGFR1 (Homo sapiens, UniProt P11362)
Construct: purchased Millipore
Test summary: ELISA kinase assay, FGFR1
Type: biochemical
Conditions used: 0.01 μM compound
Reported inhibition at 0.01 µM values are given for each entry in this list.

[
  {
    "Molecule": "CC(=O)Cn1cc(-c2cnc3ccn(S(=O)(=O)c4cccc([N+](=O)[O-])c4)c3n2)cn1 [Compound 25]",
    "inhibition at 0.01 µM": "32.8%"
  },
  {
    "Molecule": "COc1cccc2cc(-c3cnc4ccn(S(=O)(=O)c5cccc([N+](=O)[O-])c5)c4n3)[nH]c12 [Compound 28]",
    "inhibition at 0.01 µM": "27.2%"
  },
  {
    "Molecule": "CC(=O)n1cc(-c2cnc3ccn(S(=O)(=O)c4cccc([N+](=O)[O-])c4)c3n2)cn1 [Compound 23]",
    "inhibition at 0.01 µM": "36.5%"
  },
  {
    "Molecule": "CCC(=O)n1cc(-c2cnc3ccn(S(=O)(=O)c4cccc([N+](=O)[O-])c4)c3n2)cn1 [Compound 24]",
    "inhibition at 0.01 µM": "29.3%"
  }
]

----------
Test system: FGFR1 (Homo sapiens, UniProt P11362)
Construct: purchased Millipore
Test summary: ELISA kinase assay, FGFR1
Assay type: biochemical
Conditions used: 1 μM compound
Here the recorded inhibition at 1 µM is given for each entry.

[
  {
    "Smiles str": "CC(=O)c1ccc(-c2cnc3ccn(S(=O)(=O)c4cccc([N+](=O)[O-])c4)c3n2)cc1",
    "inhibition at 1 µM / %": 57.9
  },
  {
    "Smiles str": "CC(=O)Cn1cc(-c2cnc3ccn(S(=O)(=O)c4cccc([N+](=O)[O-])c4)c3n2)cn1",
    "inhibition at 1 µM / %": 63.4
  },
  {
    "Smiles str": "Cn1cc(-c2cnc3ccn(S(=O)(=O)c4ccc(F)cc4F)c3n2)cn1",
    "inhibition at 1 µM / %": 31.2
  },
  {
    "Smiles str": "Cn1cc(-c2cnc3ccn(S(=O)(=O)c4ccccc4)c3c2)cn1",
    "inhibition at 1 µM / %": 31.6
  },
  {
    "Smiles str": "Cn1cc(-c2cnc3ccn(S(=O)(=O)c4ccc([N+](=O)[O-])cc4)c3n2)cn1",
    "inhibition at 1 µM / %": 12.8
  },
  {
    "Smiles str": "Cn1cc(-c2cnc3ccn(S(=O)(=O)c4ccc(N)cc4)c3n2)cn1",
    "inhibition at 1 µM / %": 24.2
  },
  {
    "Smiles str": "Cn1cc(-c2cnc3ccn(S(=O)(=O)C4CCCC4)c3n2)cn1",
    "inhibition at 1 µM / %": 20.8
  },
  {
    "Smiles str": "COc1cccc2cc(-c3cnc4ccn(S(=O)(=O)c5cccc([N+](=O)[O-])c5)c4n3)[nH]c12",
    "inhibition at 1 µM / %": 62.4
  },
  {
    "Smiles str": "Cn1cc(-c2cnc3ccn(S(=O)(=O)c4ccc(Cl)c(Cl)c4)c3n2)cn1",
    "inhibition at 1 µM / %": 34.8
  },
  {
    "Smiles str": "Cn1cc(-c2cnc3cnn(S(=O)(=O)c4ccccc4)c3c2)cn1",
    "inhibition at 1 µM / %": 47.1
  },
  {
    "Smiles str": "Cn1cc(-c2cnc3ccn(S(=O)(=O)c4ccc(Cl)cc4)c3n2)cn1",
    "inhibition at 1 µM / %": 27.2
  },
  {
    "Smiles str": "Cn1cc(-c2cnc3ccn(S(=O)(=O)C4CCCCC4)c3n2)cn1",
    "inhibition at 1 µM / %": 24.1
  },
  {
    "Smiles str": "Cn1cc(-c2cnc3ccn(S(=O)(=O)c4ccccc4C#N)c3n2)cn1",
    "inhibition at 1 µM / %": 32.6
  }
]
